experimental_system: 76I-PfCRT^K1 (Plasmodium falciparum, UniProt Q9N623, A220S/K76I/M74I/N326S/N75E/Q271E/R371I)
Sequence (Q9N623 whole entry A220S/K76I/M74I/N326S/N75E/Q271E/R371I): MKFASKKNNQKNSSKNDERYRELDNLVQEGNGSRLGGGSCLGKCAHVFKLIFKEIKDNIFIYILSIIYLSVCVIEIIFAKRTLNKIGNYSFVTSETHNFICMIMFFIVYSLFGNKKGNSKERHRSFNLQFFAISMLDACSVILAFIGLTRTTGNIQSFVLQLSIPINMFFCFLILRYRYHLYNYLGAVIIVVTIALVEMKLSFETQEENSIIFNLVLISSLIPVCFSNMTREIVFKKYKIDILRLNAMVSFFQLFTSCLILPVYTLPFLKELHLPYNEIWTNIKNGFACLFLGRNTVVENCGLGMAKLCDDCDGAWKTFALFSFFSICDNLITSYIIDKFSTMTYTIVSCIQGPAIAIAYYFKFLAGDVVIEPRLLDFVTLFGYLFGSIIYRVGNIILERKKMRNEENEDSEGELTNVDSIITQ
measurement_notes: Inhibition of PfCRT-mediated [3H]CQ transport in oocytes
test_conditions: via 76I-PfCRT^K1 in oocytes
measurement_label: IC50
Your answer should be a number followed by the unit of measure.

Entry NC12CC3CC(CC(C3)C1)C2 [amantadine] : reported IC50 = ?
186 µM
